Test: Cmax in C57BL/6J mouse at 30 mg/kg, po
Format: ADME, organism-based
Parameters: dose 30 mg/kg, route oral
Settings: in vivo
metric.name: Cmax (nM)

1. O=C(O)c1cc(-c2ccc(CC(C(=O)c3ccc(Cl)cc3)c3ccc(F)c(F)c3)cc2)no1 (stereo not drawn) : 1900
2. COc1ccc(C(Cc2ccc(-c3cc(C(=O)O)on3)cc2)c2nc(-c3ccc(Cl)cc3)no2)cc1 (stereo not drawn) : 1340
3. O=C(O)c1cc(-c2ccc(CC(c3ccccc3)c3nc(-c4ccccc4)no3)cc2)no1 (stereo not drawn) : 7200
